Just for reference, patent US20110160206A1 is where these values come from.

Reported pIC50 is given for each of the following molecules.
study_system: PDE10 (PDE10A) (Bos taurus)
Construct: isolated and prepared from bovine corpus striatum
Sequence (A0A3Q1MHJ4 1-1068): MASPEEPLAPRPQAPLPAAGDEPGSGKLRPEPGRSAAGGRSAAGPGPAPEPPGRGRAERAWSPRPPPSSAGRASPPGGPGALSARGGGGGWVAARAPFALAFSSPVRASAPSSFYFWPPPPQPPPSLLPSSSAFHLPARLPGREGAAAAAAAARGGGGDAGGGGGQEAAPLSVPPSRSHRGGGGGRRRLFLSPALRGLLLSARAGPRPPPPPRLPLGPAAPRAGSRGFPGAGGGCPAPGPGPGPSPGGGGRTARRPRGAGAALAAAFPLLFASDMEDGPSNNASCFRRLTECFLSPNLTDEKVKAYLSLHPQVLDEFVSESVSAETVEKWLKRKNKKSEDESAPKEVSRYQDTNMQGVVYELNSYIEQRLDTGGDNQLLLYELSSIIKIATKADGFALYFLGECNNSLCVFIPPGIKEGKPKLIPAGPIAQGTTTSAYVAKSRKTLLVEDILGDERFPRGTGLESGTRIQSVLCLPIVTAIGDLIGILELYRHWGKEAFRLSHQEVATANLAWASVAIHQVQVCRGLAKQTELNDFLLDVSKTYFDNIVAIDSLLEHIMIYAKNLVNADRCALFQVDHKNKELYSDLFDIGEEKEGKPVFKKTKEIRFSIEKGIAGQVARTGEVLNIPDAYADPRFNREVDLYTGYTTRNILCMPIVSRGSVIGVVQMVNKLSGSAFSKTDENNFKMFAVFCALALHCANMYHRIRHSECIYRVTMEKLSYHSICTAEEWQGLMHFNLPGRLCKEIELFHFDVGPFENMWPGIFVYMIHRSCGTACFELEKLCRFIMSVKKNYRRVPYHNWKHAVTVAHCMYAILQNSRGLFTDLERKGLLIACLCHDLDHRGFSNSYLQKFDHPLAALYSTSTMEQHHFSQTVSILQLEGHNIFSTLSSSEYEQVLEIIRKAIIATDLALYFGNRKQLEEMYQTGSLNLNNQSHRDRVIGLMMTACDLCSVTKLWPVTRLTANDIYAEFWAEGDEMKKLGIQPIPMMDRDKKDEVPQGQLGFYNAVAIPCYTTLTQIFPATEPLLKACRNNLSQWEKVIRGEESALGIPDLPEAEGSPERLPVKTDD
test: Measurement of PDE10 inhibitory activity (radiolabeled nucleotide PDE assay)
experimental_conditions: PDE10A from bovine corpus striatum; [3H]cAMP 7 nM final; room temperature 90 min
pIC50: −log10 of the molar value. Structures can show the parent of a compound that is named as a salt.
endpoint_name: pIC50

molecule	study_system	observed
Cc1nc2ccccc2nc1OCc1nc(N2CCCC2)cc(N(C)C2CCOCC2)n1 [Example 5.002, hydrochloride]	PDE10 (PDE10A) (Bos taurus)	9.21
CN(C)c1nc2ccccc2nc1/C=C/c1nc(N2CCCC2)cc(N2CCOCC2)n1	PDE10 (PDE10A) (Bos taurus)	9.10
CO[C@H]1CC[C@H](Nc2cc(N3CCCC3)nc(CCc3nc4cc(C(F)(F)F)ccc4nc3C)n2)CC1	PDE10 (PDE10A) (Bos taurus)	10.51
COc1ccc2nc(C)c(/C=C/c3nc(NC4CCOCC4)cc(N4CCCC4)n3)nc2c1 [Example 1.078, dihydrochloride]	PDE10 (PDE10A) (Bos taurus)	10.33
CO[C@H]1CC[C@H](Nc2cc(N3CCCC3)nc(/C=C/c3nc4ccc(F)cc4nc3C)n2)CC1 [Example 1.048, dihydrochloride]	PDE10 (PDE10A) (Bos taurus)	10.40
Cc1nc2ccccc2nc1/C=C/c1nc(N[C@H]2CC[C@](C)(O)CC2)cc(N2CCCC2)n1	PDE10 (PDE10A) (Bos taurus)	10.14
Cc1ccc2nc(C)c(/C=C/c3nc(N[C@H]4CC[C@](C)(O)CC4)cc(N4CCCC4)n3)nc2c1	PDE10 (PDE10A) (Bos taurus)	10.32
CN(C)c1nc2ccccc2nc1/C=C/c1nc(N2CCCC2)cc(N(C2CCOCC2)C2CC2)n1	PDE10 (PDE10A) (Bos taurus)	10.00
COCCNc1cc(N2CCCC2)nc(/C=C/c2nc3ccccc3nc2N(C)C)n1	PDE10 (PDE10A) (Bos taurus)	9.22
CN(C)c1nc2ccccc2nc1/C=C/c1nc(N[C@@H]2CCS(=O)(=O)C2)cc(N2CCCC2)n1	PDE10 (PDE10A) (Bos taurus)	10.05
CN(c1nc2ccccc2nc1/C=C/c1nc(NC2CCOCC2)cc(N2CCCC2)n1)C1CC1	PDE10 (PDE10A) (Bos taurus)	9.32
Oc1nc2ccccc2nc1/C=C/c1nc(NC2CCOCC2)cc(N2CCCC2)n1 [Example 1.094, hydrochloride]	PDE10 (PDE10A) (Bos taurus)	9.77
Cc1nc2ccc(C(F)(F)F)cc2nc1/C=C/c1nc(N[C@@H]2CCS(=O)(=O)C2)cc(N2CCCC2)n1	PDE10 (PDE10A) (Bos taurus)	11.48
CN(C)c1nc2ccccc2nc1/C=C/c1nc(NC2CCOCC2)cc(N2CCCC2)n1 [Example 1.001, dihydrochloride]	PDE10 (PDE10A) (Bos taurus)	10.00
Cc1nc2ccccc2nc1/C=C/c1nc(N[C@H]2CC[C@H](CO)CC2)cc(N2CCCC2)n1	PDE10 (PDE10A) (Bos taurus)	10.41
CN(c1cc(N2CCCC2)nc(/C=C/c2nc3ccccc3nc2N(C)C2CC2)n1)C1CCOCC1	PDE10 (PDE10A) (Bos taurus)	9.34
Cc1nc2ccc(F)cc2nc1/C=C/c1nc(NC2CCOCC2)cc(N2CCCC2)n1 [Example 1.050, hydrochloride]	PDE10 (PDE10A) (Bos taurus)	9.85
Cc1nc2ccc(OC(F)(F)F)cc2nc1/C=C/c1nc(N[C@H]2CC[C@H](O)CC2)cc(N2CCCC2)n1	PDE10 (PDE10A) (Bos taurus)	10.96
Cc1cc2ccccc2nc1/C=C/c1nc(N[C@@H]2CCS(=O)(=O)C2)cc(N2CCCC2)n1	PDE10 (PDE10A) (Bos taurus)	9.52
Cc1cc2ccccc2nc1/C=C/c1nc(NC2CCOCC2)cc(N2CCCC2)n1	PDE10 (PDE10A) (Bos taurus)	9.44
Cc1cc2nc(C)c(/C=C/c3nc(N[C@@H]4CCOC4)cc(N4CCCC4)n3)nc2cc1C	PDE10 (PDE10A) (Bos taurus)	9.18
Cc1nc2ccccc2nc1OCc1cc(NC2CCOCC2)nc(N2CCCC2)n1 [Example 6.001, hydrochloride]	PDE10 (PDE10A) (Bos taurus)	9.66
